System: Hs-578T
assay comment: NCI tumour cell line growth inhibition, 48 h
Calls of active or inactive are those of the source. No stated cut-off is given here; in the data, active = GI50 up to about 1.1 µM and inactive = higher.
Listing of recorded GI50 by entry.

Solved cases (3 shown):
smiles_record=N/C(=N\N=C\c1cc2ccccc2s1)c1cnccn1 target_under_test=Hs-578T recorded_value="> 100 µM (inactive)"
smiles_record=O=[N+]([O-])/C=C/c1cc2ccc3ccccc3c2[nH]1 target_under_test=Hs-578T recorded_value="3.56 µM (inactive)"
smiles_record=O=C1Nc2c(Cl)cccc2/C1=N/Nc1ccccc1[N+](=O)[O-] target_under_test=Hs-578T recorded_value="7.87 µM (inactive)"

Consider now this further compound.
QUERY: Would you mind telling me what GI50 value was observed for `O=C(CCC1OCCO1)Nc1cc(NCc2ccccc2)ccc1OCc1ccccc1` ?
RESULT: 34.3 µM (inactive)

----------
System: A498
assay comment: NCI tumour cell line growth inhibition, 48 h
The source made the active and inactive calls. Rule as the data show it: active = GI50 up to about 1.1 µM and inactive = higher.
Respond only with the outcome that fits, drawn from Yes = active, No = inactive

Recorded results for 6 molecules are shown here.
molecule="Cc1c(N)nc(C(CC(N)=O)NCC(N)C(N)=O)nc1C(=O)NC(C(=O)NC(C)C(O)C(C)C(=O)NC(C(=O)NCCc1nc(-c2nc(C(=O)NCCCNCCCCN)cs2)cs1)C(C)O)C(OC1OC(CO)C(O)C(O)C1OC1OC(CO)C(O)C(OC(N)=O)C1O)c1c[nH]cn1 (centres undefined)" discrete_label=No
molecule=Cc1cccc(-n2c(N)c(-c3nc4ccccc4[nH]3)sc2=S)c1 discrete_label=No
molecule=CC(C)[C@H](O)C(=O)N[C@H]1Cc2ccc3c(c2)[C@]24C5=C(N=C(O5)[C@H](C(C)C)NC1=O)c1nc(Cl)c(o1)-c1c(Cl)[nH]c5cccc(c15)-c1cccc2c1N[C@H]4O3 discrete_label=No
molecule=COc1ccc(NC(=O)/C(=C/c2ccccc2)C(C)=O)cc1 discrete_label=No
molecule=Cc1ccccc1N/C(=C(/C(Cl)=C(Cl)Cl)[N+](=O)[O-])n1nnc2ccccc21 discrete_label=No
molecule=CNC1=Nc2ccc(Cl)cc2C(c2ccccc2)=NN1C discrete_label=No

QUERY: Hey, what did the test say about NC1N=C(c2ccc(Cl)cc2)C2=C(N1)c1ccccc1CC2 (centres undefined) ?
RESULT: No

QUERY: Another molecule: O=C(CN1C(=O)c2ccccc2C1=O)OCC1CCCN2CCCCC12 (centres undefined)
RESULT: No

QUERY: Another molecule: CC1OC(n2cc(F)c(=O)[nH]c2=O)C=CC1O (centres undefined)
RESULT: No

QUERY: Another molecule: `Cc1cc(C)c(C#N)c(SC(=S)NC(=O)c2ccc(Cl)cc2)n1`
RESULT: No

QUERY: Another molecule: CNC(=O)OCc1nc([S+](C)[O-])n(C)c1COC(=O)NC (centres undefined)
RESULT: No

----------
Test system: KM12
assay comment: NCI tumour cell line growth inhibition, 48 h
The source made the active and inactive calls. No stated cut-off is given here; in the data, active = GI50 up to about 1.1 µM and inactive = higher.
Respond only with the outcome that fits, drawn from t = active, f = inactive

Recorded results for 2 molecules are shown here.
molecule="Cc1cccc(CC(Cc2c(C)cccc2C(=O)O)C(=O)O)c1 (stereo unspecified)" discrete_label=f
molecule=CSc1nn(C)cc2ncnc1-2 discrete_label=f

QUERY: Hey, what did the test say about `O=C1NC(=O)c2c1n(Cc1ccccc1)c(=O)n2Cc1ccccc1` ?
RESULT: f

QUERY: Another molecule: `O=C1C(c2ccccc2)=[N+]([O-])c2cc([N+](=O)[O-])ccc21`
RESULT: f

QUERY: Another molecule: `COc1ccc(Cc2ccc3nc(O)cc(C)c3c2)cc1S(=O)(=O)O`
RESULT: f

QUERY: Another molecule: `CC(=O)/N=C1/N(/C=C2\C(=O)Oc3ccccc3C2=O)C(=O)/C(=C/c2ccccc2Cl)N1C`
RESULT: f

QUERY: Another molecule: C=CCCC(OCOCCOC)c1cc(C)c(O[Si](C)(C)C(C)(C)C)c(C)c1 (stereo unspecified)
RESULT: f

QUERY: Another molecule: `COC(=O)/C=C(\S/C(=C(/c1ccccc1)n1cc(C(=O)OC)c(C(=O)OC)n1)c1ccccc1)C(=O)OC`
RESULT: f

QUERY: Another molecule: `c1ccc2cc(-c3cc(-c4cc(-c5ccc6ccccc6c5)on4)no3)ccc2c1`
RESULT: f

----------
Tested on: NCI-H522
assay comment: NCI tumour cell line growth inhibition, 48 h
Calls of active or inactive are those of the source. No stated cut-off is given here; in the data, active = GI50 up to about 1.1 µM and inactive = higher.
Respond only with the outcome that fits, drawn from true = active, false = inactive

Recorded results for 5 compounds are shown here.
compound=Cc1nc(N)nc(N)c1CCCCc1ccccc1 target_under_test=NCI-H522 discrete_label=false
compound=O=C(Nc1ccc(C(F)(F)F)cc1[N+](=O)[O-])C(=O)Nn1c(S)nc2ccccc2c1=O target_under_test=NCI-H522 discrete_label=false
compound="NC1N=C(c2ccc(Cl)cc2)C2=C(N1)c1ccccc1CC2 (centres undefined)" target_under_test=NCI-H522 discrete_label=false
compound="Cc1cn(C2CC(Br)C(COC(c3ccccc3)(c3ccccc3)c3ccccc3)O2)c(=O)[nH]c1=O (centres undefined)" target_under_test=NCI-H522 discrete_label=false
compound="O=C1OC(=O)C2C3C=CC(C12)C1C2C=CC2C31 (centres undefined)" target_under_test=NCI-H522 discrete_label=false

QUERY: Hey, what did the test say about Nc1nc(SCCC/C=C/B(O)O)nc2c1ncn2C1OC(CO)C(O)C1O (centres undefined) ?
RESULT: false

QUERY: Another compound: `CCCC/C(C)=N/NC(N)=S`
RESULT: false

QUERY: Another compound: CCCCCCCCCCCCCCCCCCNc1ccn(C2OC(COP(=O)(O)OCC3OC(n4cc(C)c(=O)[nH]c4=O)CC3F)C(O)C2O)c(=O)n1 (centres undefined)
RESULT: false

QUERY: Another compound: `Cc1n[nH]c(=O)c2c3c([nH]c12)-c1ccccc1C3`
RESULT: false

----------
System: CCRF-CEM
assay comment: NCI tumour cell line growth inhibition, 48 h
Activity calls are given as the source filed them. No stated cut-off is given here; in the data, active = GI50 up to about 1.1 µM and inactive = higher. Where a SMILES comes first, the peptide text is derived from it. The star is where a group is joined. X33 = O=C(c1ccc(-c2ccc(Cl)cc2Cl)o1)*
Respond only with the outcome that fits, drawn from active, inactive

Recorded results for 5 molecules are shown here.
molecule=COc1cc(OC)nc(-n2c(N)c(C#N)c3ccc([N+](=O)[O-])cc3c2=O)n1 target_under_test=CCRF-CEM discrete_label=inactive
molecule="COc1ccccc1N1C(=O)/C(=C\\c2cc(OC)c(OC)c(OC)c2)S(=O)(=O)C1c1ccccc1 (stereo not drawn)" target_under_test=CCRF-CEM discrete_label=inactive
molecule=C1=Cc2cccc3occ(c23)C=C1 target_under_test=CCRF-CEM discrete_label=inactive
molecule="COc1ccc(C2c3cc4c(c(OC)c3CC3OCC(=O)C32)OCO4)cc1OC (stereo not drawn)" target_under_test=CCRF-CEM discrete_label=active
molecule=NNC(=O)CC(=O)Nc1ccc(C(=O)O)cc1 target_under_test=CCRF-CEM discrete_label=inactive

QUERY: Hey, what did the test say about `c1ccc2cc(-c3cc(-c4cc(-c5ccc6ccccc6c5)on4)no3)ccc2c1` ?
RESULT: inactive

QUERY: Another molecule: CCC(C)C(NC(=O)CNC(=O)C(Cc1ccccc1)NC(=O)C1CCCN1C(=O)c1ccc(-c2ccc(Cl)cc2Cl)o1)C(=O)OC (stereo not drawn) (X33-PFGI-OMe; configuration not given here)
RESULT: inactive

QUERY: Another molecule: `Nc1n[n+](-c2ccccc2)no1`
RESULT: inactive

QUERY: Another molecule: `CC(=O)Nc1[nH]n(C)c(=O)c1-c1nnc(C)s1`
RESULT: inactive

----------
System: SNB-75
assay comment: NCI tumour cell line growth inhibition, 48 h
The source made the active and inactive calls. No stated cut-off is given here; in the data, active = GI50 up to about 1.1 µM and inactive = higher.
Respond only with the outcome that fits, drawn from YES = active, NO = inactive

compound="NC(=O)CC(N)C(=O)NC(Cc1ccccc1)C(=O)NC(Cc1ccccc1)NC(=O)C(Cc1c[nH]c2ccccc12)C(=O)O (configuration not stated)" discrete_label=NO
compound=Cc1cc(N(CCC#N)CCC#N)ccc1/C(Sc1ccccc1)=C(\NC(=O)/C=C/c1ccccc1)C(=O)Sc1ccccc1 discrete_label=NO
compound="CCN1CCC(O)(c2ccc([N+](=O)[O-])cc2)C(C(=O)c2ccc([N+](=O)[O-])cc2)C1 (configuration not stated)" discrete_label=NO
compound=COc1cc([N+](=O)[O-])c(S(=O)(=O)O)cc1N discrete_label=NO
compound="Cc1cc(=O)oc2c(CNC(C)C(=O)O)c(O)ccc12 (configuration not stated)" discrete_label=NO
compound=CCc1ccccc1NC(=O)c1cccc([N+](=O)[O-])c1O discrete_label=NO
compound=CCCC(=O)Oc1cc(OC(=O)CCC)c2c(C)cc(=O)oc2c1 discrete_label=NO
compound=CCOC(=O)c1[nH]c(CN(C)Cc2[nH]c(C(=O)OCC)c(C)c2C(=O)OCc2ccccc2)c(C(=O)OCc2ccccc2)c1C discrete_label=NO

Continue with the compound presented below.
QUERY: Hey, what did the test say about `C/C=N\N1C(=O)c2ccccc2C1=O` ?
RESULT: NO
